# Tested on: HCT-116 colon
# protocol_notes: NCI tumour cell line growth inhibition, 48 h
# TGI annotations

If you can, please state the reported TGI value of "CON(C)c1nc(N)c(C#N)c(C#N)c1C#N" .
> 10 µM

If you can, please state the reported TGI value of "COc1ccc2c(c1)CC[C@@H]1[C@@H]2CC[C@]2(C)/C(=N/OCCN3CCCC3)CC[C@@H]12" .
3.43 µM

---

# TGI annotations
# System: IGROV1 ovarian
# protocol_notes: NCI tumour cell line growth inhibition, 48 h
Number in µM, nothing else.

Below: 2 compounds and their reported TGI.
>>> df
                                   compound  value
0  Cc1ccc2nc(NC(=O)C(=O)C(C(=O)c3ccc4ccccc4c3)C3OC(=O)c4ccccc43)sc2c1 (stereo not given)   44.3
1  COc1ccc2[nH]c(Cl)c(/C=C3/C(=O)Nc4ccccc43)c2c1   20.7

Then this compound:
If you can, please state the reported TGI value of "N#C/C(=C\c1ccc(O)c(O)c1)C(=O)NCc1ccc(C(F)(F)F)cc1" .
14.4
